experiment: yeast display, Sf9 membrane polyspecificity reagent, FACS + sequencing; frameworks hold sequencing errors
measurementKind: polyreactivity (PSR sort gate)

Solved entries (count: 4):
INSERT INTO assay_data (biopolymersequence, result) VALUES
  ('QVQLVESGGGLVQAGGSLRLSCAASGRILYPYAMGWYIQAPGKERELVAAITFIGGSTYYADSVKGRFTISRDNAKNTVYLQMNSLKPEDTAVYYCNAKPHRPSLLRWRIGNYWGQGTQVTVSS', 'high polyreactivity'),
  ('QVQLQESGGGLVQAGGSLRLSCAASGYISHADEMGWYRQAPGKEHELVASISNGGSTNYADSVKGRFTIRRDNAKNTVYLQMNSLKSEDTAVYYCAAWTGQVDIHDSWGQRTQVTVSS', 'low polyreactivity'),
  ('QVQLVESGGGLVQAGGSLRLSCAASGSIFHWYAMGWYRQAPGKERELVAAITWSGDTTYYADSVKGRFTISRDNAKNTVYLQMNSLKPEDTAVYYCAVERDDQDYDYWGQGTQVTVSS', 'low polyreactivity'),
  ('QVQHVESGGGLVQAGGSLRLSCAASGRTFRGYAMGWYRQAPGKERELVASISASGVRTYYADSVKGRFTISRDNAKNTVYLQMNSLKPEDTAVYYCNARHGGWYSVYYYWGQGTQVTVSS', 'high polyreactivity');

Moving on to the next sequence.
For the sequence shown here, QVQLVESGGGLVQAGGRLRLSCAASGLIFGANTMGWYSQAPGKERELVAAITSSGGSTYYADSVKGRFTISRDNAKNTVYLQMNSLKPEDTAVYFCNDRSWYPYDYWGQGTQVTVSS , give the reported polyreactivity (PSR sort gate).
low polyreactivity

----------
assay: yeast display, Sf9 membrane polyspecificity reagent, FACS + sequencing; frameworks hold sequencing errors
measurementKind: polyreactivity (PSR sort gate)

INSERT INTO results (biopolymersequence, result) VALUES
  ('QVQLVESGGGLVQAGGSLRLSCAASGRTLPEYGMGWSRQAPGKEREFVAAISTRGGSTYYANSVKGRFTISRDNAKNTVYLQMNSLKPEDTAVYYCAKVYDRSCGDYWGQGTQVTVSS', 'low polyreactivity'),
  ('QVQLVESGGGLVQAGGSLRLSCAASGSTVGANAMGWYRQAPGKERELVATISSGGRTYYADSVKGRFTISRDNAKNTVYLQMNSLKPEDTAVYYCNAGADYTYVYISVYVLYDYWGQGTQVTVSS', 'low polyreactivity'),
  ('QVQLVESGGGLVQAGGSLRLSCAASGSILFANAMGWYRQAPGKERELVAAIRGSGSTYYADSVKGRFTISRDNAKNTVYLQMNSLKPEDTAVYYCAKRHLISIPDYGRHEYDYWGQGTQVTVSS', 'low polyreactivity'),
  ('QVQLVESGGGLVQAGGSLRLSCAASGITFDHYAMGWYRQAPGKERELVAAITSGGNTNYADSVKGRFTISRDNAKNTVYLQMNILKPVDTAVYYCNARYDVWYYYWGQGTQVTVSS', 'high polyreactivity');

Can you share its polyreactivity (PSR sort gate)? I mean this sequence: QVQLVESGGGLVQAGGSLRLSCAASGRTITKYVMGWYRHAPGKERELVAAITSSGSSTYYADSVKGRFTISRDNAKNTVYLQMNSLKPEDTAVYYCAARRGAPFARQYDYWGQGTQVTVSS
high polyreactivity

Need polyreactivity (PSR sort gate) of QVQLVESGGGLVHAGGSLRLSCAASGFIFYYNAMGWYRHAPGKERELVAGISRSAGSTYYADSVKGRFTISRDNAKNSVYLQMNSLKPEDTAVDYCAARYLSYITGTSYYWGQVTQVTVSS , thanks.
low polyreactivity

I would be grateful if you could share the reported polyreactivity (PSR sort gate) for QVQLVESGGGLFQAGGSLRLSCAASGFIFSYNAMGWYRQAPGKERELVAAISSSGGTTYYADSVKGRFTISRDNAKNTVYLQMNSLKPEDTAVYYCNARWHAEYDYWGQGTQVTVSA .
low polyreactivity

What polyreactivity (PSR sort gate) value was documented for this sequence, QVQLVESGGGLVQAGGSLRLSCAASGINFCWYAMGWYRQAPGKERELVAAISGTGGSTYYADSVKGRFTISRDNAKNTVYLQMNSLKPEDTAVYYCAARGKSSSYYDYDYCGQGTQVTVSS ?
low polyreactivity

Please report the recorded polyreactivity (PSR sort gate) for QVQLVESGGGLVQAGGSLRLSCAASGRISVRNAMGWYRQAPGKERELVATIRSGGSTNYADSVKGRFTISRDNAKNTVYLQMYSLKPEDTAVYYCATAKLTWRSQGLDYWGQGTQVTVSS .
low polyreactivity

# lookup: polyreactivity (PSR sort gate) of QDQLVDSGGGLDQAGGSLRLSCAASGGTFSSYDMGWYRQEPGKERELLADISWSGSSTDYADSVKGRYTISRDNAKNTVYLQLTSLKPEDTAVYYCAARPISFPYLGRNGYWGQGTQVTVSS
low polyreactivity

Field request: polyreactivity (PSR sort gate) | item: HVQLVESGGGLVQAGVSLRLSCAASGRLLEGYAMGWYRQAPGKERELVAAISFSTTTTYYADSVKGRFTISRDNAKNTVYLQMNSLKPEDTAVYYCAADSQQSDYDYWGQGTQVTVSS
high polyreactivity

----------
experiment: yeast display, Sf9 membrane polyspecificity reagent, FACS + sequencing; frameworks hold sequencing errors
measurementKind: polyreactivity (PSR sort gate)

INSERT INTO results (biopolymersequence, result) VALUES
  ('QVQLVESWGGLDQAGGSLRLSCAASGSTFYAYAMGWYRPAPGKERELVAAISSDGTNYADSVKGRFTISRDNAKNTVYLQMNSLKPEDTAVYYCAADLLLYSSQDNDFWGQGTQVTVSS', 'low polyreactivity'),
  ('QVQLVESGGGLVQAGGSLRLSCAASGRTFNPYAMGWYRQAPGKERELVAVISYIGGSTYADSVKGRFTISRDNEKNTVYLQMNSLKPEDTAVYYCNRATFGQWGCDYWGQGTQVTVSS', 'high polyreactivity'),
  ('QVQLVESGGGLVQAGGSLRLSCAASGSTFHLYAMGWYRQAPGKERELVADIDLSGGSTYYADSVKGRFTISRDNAKNTVYLQMNSLKPEDTAVYYCAADHVSSLGFDYWGQGTQVTVSS', 'low polyreactivity'),
  ('QVQLVESGGGLVQAGGSLRLSCAASGSTFVNNVMGWYRQAPGKERELVAAISGRGGNTYYADSVKGRFTISRDNAKNTVYLQMNSLKPEDTAVYYCAPYSWGWSLWTYDYWGQGTQVTVSS', 'high polyreactivity');

Could you now consider this next sequence?
Fill in: polyreactivity (PSR sort gate) of QVQLVESGVGLVQAGGSLRLSCAASGIIFYDYVMGWYRPAPGKEWELVAAISRSGGSTYYADSVKGRFTISRDNAKNTVYLQMNSLKPEDTAVYYCAADTVVTEMEYCGQGTQVTVSS is ___
high polyreactivity

----------
assay: yeast display, Sf9 membrane polyspecificity reagent, FACS + sequencing; frameworks hold sequencing errors
measurementKind: polyreactivity (PSR sort gate)

Before answering, review these 4 worked examples.
INSERT INTO measurements (biopolymersequence, result) VALUES
  ('QVQLVESGGGLVQAGGSLRLSCASSGSTFHVNAMGWYRQAPGKERELVARISSTGRTSYADSVKGRFTISRDNAKNTVYLQMNSLKPEDTAVYYCAARYYRVYVSSDYYYWGQGTQVTVSS', 'high polyreactivity'),
  ('QVQLVESGGGLVQAGGRLRLSCAPSGSTFPPYAMGWYRQAPGKERELVADITRRGASTYYADSVKGRFTISRDNAKNTVYLQMNSLKPEDTAVYYCAARFYYQYYSGFDYWGQGTQVTVST', 'high polyreactivity'),
  ('QVQLVESGGGLVQAGGSLRLSCAASGSIFVWNALGWYRQAPGTERELVAAISYTDGSTYYADSVKGRFTISRDNATNTVYFQMNSLKPEVTAVYYCNAYPASRGPGNPLDDYWGQGTQVTVSS', 'low polyreactivity'),
  ('QVQLEESGGGLVQAGGSLRLSCAASGRTFVYYAMGWYRTATGKQRELVAAITSSGSRTYYADSVKGRFTFSRDNAKNTVYLQMNSLKPEDTAVYYCAADYVAHGDYRVLYDYWGQGTQVTVSS', 'low polyreactivity');

Now for another entry.
What value of polyreactivity (PSR sort gate) has been recorded for this entry: QVQLVESGGGLVQAGGSLRLSCAASGSTFEPYAMGWYRQAPGKERELVAAISSGGSTSYADSVKGRFTISRDNAKNTVYLQMNSLKPEDTAVYYCAKRWRSYRHEDYGYWGQGTQVTVSS
low polyreactivity

----------
test: yeast display, Sf9 membrane polyspecificity reagent, FACS + sequencing; frameworks hold sequencing errors
measurementKind: polyreactivity (PSR sort gate)

Here's what some known entries look like.
INSERT INTO results (biopolymersequence, result) VALUES
  ('QVQLVESRGGLVQAGGSLRLSCGASGFIFKPYAMGWYRQAPGKERELVASISTGARTYYADSVKGRFTISRDNAKNTVYLQMNSLKPEDTGVYYCAAAYSRWITRYDYWGQGTQVTVSS', 'high polyreactivity'),
  ('QVQLEESGGGLGQAGGSLRLSCAASGSTFTVNGKGWYRQPPGKERELVASITWSGGSTYYADSVKGRFTLSRDNAKYTVYLQMNSLKPEDTAVYYCAADEKLYITGYDYWGQGTQVTVSS', 'low polyreactivity'),
  ('QVQLVESGGGLVQAGGSLRLSCAASGSIFTGNAMGWYRQAPGKERELVAAITQRGGRTYYADSVKGRFTISRDNAKNTVYLQMNSLKPKIPAVYYCNAKWTTLFDYWGQGTQVTVSS', 'high polyreactivity'),
  ('QVQLVESGGGLVQAGGSLRLSCAASGSIFWLYAMGWYRQAPGKERELVAAMSWSGTSTNYADSVKGRFTISRDIAKNTVYLQMNRLKPEDTAVYYCAKRWNNQKLFGYEEEYDYWGQGTQVTGSS', 'low polyreactivity'),
  ('QVQLVESGGGLVQAGGSLRLSCAASGRIFGTNALGWYRQAPGKERELVATITRGGGNTYYADSVKGRFTISRDNAKNTVYLQMNSLKPEDTAVYYCAAKFHRFAWYSHYDYWGQGTQVTVSS', 'low polyreactivity'),
  ('QVQLVESGGGLVQAGGSLRLSCAASGRTFFGNAKGWYRQAPGKERELVASISTRGGSTYYADSVKGRFTISRDNAKNTVYLQMNSLKPEDTAVYYCAKRGRDRRIYGYWGQGTQVTVSS', 'high polyreactivity');

Quick one: polyreactivity (PSR sort gate) for QVQLVESGGRLVQAGGSLSLSCASSGRIFWTYAMGLTRQAPGEERELVAAINSSDGTYYADSVKGRFTISRDNAKNTVYLQKNSLKPEDTAVYYCNADRDALVGYDYDYWGQGTQVTVSS ?
low polyreactivity

Which polyreactivity (PSR sort gate) value belongs to QVQLVESGGGLVQAGGSLRLSCAASGSIFYENVMGWYRQAPGKERELVAGISRSGGRTYYADSVKGRFTISRDNAKNTVYFQMNSLKPEDTAVYYCAALTPRNRYRKFDYWGQGTQVTVSS ?
high polyreactivity

Would you kindly share the measured polyreactivity (PSR sort gate) for QVQLVESRGGLVQAGGSLRLSCAASGSTFTHYAMGRYRHAPGKERELVAAISWGGGTTRYADSVKGRFTISRDNAKNSVYLQMNSLKPVDTAVYYCAKRVRTGSVGNFNYWGQGTQVSVSS ?
high polyreactivity

Quick one: polyreactivity (PSR sort gate) of QDHLVESAAGLVQAGGRLRLSCAASGSTLYDYAMVWSRKAPGKDRELVAAIRTGGSTYYADSVKGRFTISRDNAKNTVYLQMNSLKTEDTAVYYCAADHGYQYGYWGQGTQVTVSS ?
low polyreactivity

Data request, read-out polyreactivity (PSR sort gate), for QVQLVESGGGLVQAGGSLRLSCAASGSIIRRYAMGWYRQAPGKERELVAAISSGGSTYYADSVKGRFTISRDNAKNTVYLEMNSLKPVDTAVYYCAAAQRVSWLFGYWGQGTQVTVSS
high polyreactivity

Suppose we examine the sequence QVKLVDSGGGLVQAGGSLRISCAASGRIFGRYTMGWYRQAPGKERELVAGITYSGGSTYYADSVKGRFTISRDNAKNTVYLQMNSLKPEDTAVYYCAARLSGSGGFDYWGQGTQVTVSS ; what polyreactivity (PSR sort gate) value has been reported?
high polyreactivity

Entry QVQLVESGGGLVQAGGSLRLSCAASGLIFYGNAMGWYRQAPGKERELVADITGSSVRTYSADSVKGRFTISRDNAKNTVYVQMNSLNRKIPRSITALNVSCTSVVVGYDYWGQGTQVTVSS has what polyreactivity (PSR sort gate)?
low polyreactivity

I'd like to know its polyreactivity (PSR sort gate). The sequence in question is QVQLVESGGGLVQAGGSLRLSCAASGRILSYYAMGWYRQAPGKERELVAAISWGGGRTFYADSVKGRFTISRDNAKNTVYLQMNSLQPEDTAVYYCNADSYRWGAHDYWGQGTQVTVSS
high polyreactivity

Could you tell me which polyreactivity (PSR sort gate) is on file for QVQLVESGGGLVQAGGSLRLSCAASGGTFGYNAMGWYRQAPGKERELVAAISYTGDSTYYADSVKGRFTISRDNAKNTVDLQMNSLKPEDTAVYYCAASVYYYRYNYWGQATQVTVSS ?
low polyreactivity

Any idea what polyreactivity (PSR sort gate) was measured for QVQLVESGGGLVQAGGSLRLSCAASGSTLAGYAMGWYRQAPGKERELVAAITRRGGRTYYADSVKGRFTISRDNAKNTVYLQMNSLKPEDTAVYYCAAQRSVKVDYWGQGTQVTVSS ?
high polyreactivity

Could you tell me which polyreactivity (PSR sort gate) is on file for QVQLVESGGGLVQAGGILRLSCPASGIIIPLYAMGWYIQAPGKERELVATINIGGSTNYADSVKGRFTISRDNAKNTVYLQMNSLKPEDTAVYYCAADVDSLQRYESWGQGTQVTVSS ?
low polyreactivity

Give its polyreactivity (PSR sort gate) value. Item: QVQLVESGGGLVQAGGSLRLSCAASGRTFYSNARGWSRQAPGKERELVARISNGGSTHYADSVKGRFTISRDNAKNTVYLQMNSLKPEDTAVYYCNTDRGHFYTYPYTYYRLGYWGQGTQVTVSS
low polyreactivity

Please report the recorded polyreactivity (PSR sort gate) for QVQLVESGGGLVQAGGSLRLSCAASGFTFYYYTMGWYRQAPGKERELVAAITLSGSTTYYADSVKGRFTISRDNAKNTVYLQMNSLKPEDTAVYYCAAGFSYEWGYPTFDYWGQGTQVTVSS .
low polyreactivity

Need polyreactivity (PSR sort gate) of QVQLVESGGGLVQAGGSLRLSCAASGSIFIQYAMGWYRQAPGKERELVAAITGSGGSTYYADSVKGRFTISRDNAKNTVYLQMNSLKPEDTAVYYCATEFKRGYVGFDYWGQGTQVTVSS , thanks.
low polyreactivity

Need polyreactivity (PSR sort gate) of QVQLVESGGCLVQAGGSLRLSCAASGSIFDYNAMGWYRQAPGKEREFVAAISSSAGSTYYADSVKGRFTISRDNAKNTVYLQMNSLKPEDTAVYDCAADWYDFSFPYYEYEYWGQGTQVTVSS , thanks.
low polyreactivity
